Recorded values, source patent US6472413B2.

Record class 1 whenever melting point is at 80 °C or higher; record class 0 when lower.

Some entries whose results are on file:
INSERT INTO assay_data (given_smiles, discrete_label) VALUES
  ('CNC(=S)NS(=O)(=O)c1cc(CCNC(=O)/C=C/c2cccs2)ccc1OCCOC', 'class 1'),
  ('CNC(=S)NS(=O)(=O)c1cc(CCNC(=O)/C=C/c2ccccn2)ccc1OC', 'class 1'),
  ('CCOc1ccc(CCNC(=O)/C=C/c2cccs2)cc1S(=O)(=O)NC(=S)NC', 'class 0'),
  ('COCCOc1ccc(CCNC(=O)/C=C/c2cccs2)cc1S(=O)(=O)NC(=S)NC(C)C', 'class 1');

Task: Record "COc1ccc(CCNC(=O)/C=C/c2cccs2)cc1S(=O)(=O)NC(=S)NC(C)C" ; criterion: melting point no lower than 80 °C. Met?
Output: class 1

Task: Also "CCOCCOc1ccc(CCNC(=O)/C=C/c2cccs2)cc1S(=O)(=O)NC(=O)NC" ?
Output: class 0

----------
assay.system: hSUR1/hKir6.2 (Homo sapiens, UniProt Q09428+Q14654)
Sequence (Q09428 whole entry): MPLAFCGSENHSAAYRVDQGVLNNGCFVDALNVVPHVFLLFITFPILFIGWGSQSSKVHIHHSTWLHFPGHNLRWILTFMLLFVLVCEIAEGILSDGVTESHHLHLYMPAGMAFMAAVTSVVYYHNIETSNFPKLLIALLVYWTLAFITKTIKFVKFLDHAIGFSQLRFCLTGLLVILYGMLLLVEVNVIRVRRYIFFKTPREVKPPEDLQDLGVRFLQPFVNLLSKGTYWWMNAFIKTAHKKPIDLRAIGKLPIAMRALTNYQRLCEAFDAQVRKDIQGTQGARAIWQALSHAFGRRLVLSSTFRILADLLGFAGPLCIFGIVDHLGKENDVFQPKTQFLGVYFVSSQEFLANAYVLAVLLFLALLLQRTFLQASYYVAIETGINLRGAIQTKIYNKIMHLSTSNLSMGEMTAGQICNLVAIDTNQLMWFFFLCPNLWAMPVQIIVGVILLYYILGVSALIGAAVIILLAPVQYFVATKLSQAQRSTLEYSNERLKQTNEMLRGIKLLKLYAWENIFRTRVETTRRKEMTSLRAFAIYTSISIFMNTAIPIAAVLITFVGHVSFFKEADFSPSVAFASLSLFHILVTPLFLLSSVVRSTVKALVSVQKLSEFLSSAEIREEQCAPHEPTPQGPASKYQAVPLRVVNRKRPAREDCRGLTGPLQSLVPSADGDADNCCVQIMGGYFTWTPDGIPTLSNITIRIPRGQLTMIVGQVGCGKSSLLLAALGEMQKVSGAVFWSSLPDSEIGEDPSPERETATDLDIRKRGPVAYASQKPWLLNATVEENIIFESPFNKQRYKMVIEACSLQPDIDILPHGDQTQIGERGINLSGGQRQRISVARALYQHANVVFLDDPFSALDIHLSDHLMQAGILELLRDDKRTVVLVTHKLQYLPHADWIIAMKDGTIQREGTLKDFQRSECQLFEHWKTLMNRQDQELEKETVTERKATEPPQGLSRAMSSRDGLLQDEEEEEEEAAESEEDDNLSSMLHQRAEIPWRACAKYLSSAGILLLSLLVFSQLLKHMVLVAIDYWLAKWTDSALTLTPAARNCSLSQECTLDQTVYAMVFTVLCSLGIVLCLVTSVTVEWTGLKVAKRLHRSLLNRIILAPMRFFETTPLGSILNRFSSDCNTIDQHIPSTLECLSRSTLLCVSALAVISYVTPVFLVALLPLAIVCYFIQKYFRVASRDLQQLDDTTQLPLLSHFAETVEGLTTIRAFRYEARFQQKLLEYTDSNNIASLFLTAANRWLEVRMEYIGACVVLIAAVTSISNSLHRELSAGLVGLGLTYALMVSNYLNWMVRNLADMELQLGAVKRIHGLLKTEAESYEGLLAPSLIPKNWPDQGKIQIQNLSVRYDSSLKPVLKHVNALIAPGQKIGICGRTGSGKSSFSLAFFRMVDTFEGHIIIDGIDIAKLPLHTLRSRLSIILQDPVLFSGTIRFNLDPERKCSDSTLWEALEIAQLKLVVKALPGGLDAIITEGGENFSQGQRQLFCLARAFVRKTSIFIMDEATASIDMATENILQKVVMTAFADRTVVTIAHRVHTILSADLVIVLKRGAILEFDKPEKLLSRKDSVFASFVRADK
Sequence (Q14654 whole entry): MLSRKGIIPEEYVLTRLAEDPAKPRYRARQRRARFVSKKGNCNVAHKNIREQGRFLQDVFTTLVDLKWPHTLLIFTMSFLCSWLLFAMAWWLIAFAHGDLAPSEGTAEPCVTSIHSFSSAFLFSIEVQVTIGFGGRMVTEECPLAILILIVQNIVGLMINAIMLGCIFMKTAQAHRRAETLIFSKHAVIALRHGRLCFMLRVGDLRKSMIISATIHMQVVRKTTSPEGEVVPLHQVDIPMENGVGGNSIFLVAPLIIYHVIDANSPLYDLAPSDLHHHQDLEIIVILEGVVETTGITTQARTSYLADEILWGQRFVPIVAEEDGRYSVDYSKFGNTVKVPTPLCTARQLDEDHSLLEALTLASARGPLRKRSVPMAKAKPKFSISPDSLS
assay: Action on hSUR1/hKir6.2-transfected CHO cells (hypoglycemic action), membrane potential by DIBAC4 fluorescence (FLIPR)
Format: cell-based
condition.label: concentration 10 μM; CHO cells activated with diaxozide; mean of at least 4 experiments
reported.metric: Blockade hSUR1/hKiR6.2 (%)
Answers are plain numbers, in %.

Answered cases to consult:
INSERT INTO results (given_smiles, assay_system, value_reported) VALUES
  ('CNC(=O)NS(=O)(=O)c1cc(CCNC(=O)/C=C/c2cccs2)ccc1OCCOC', 'hSUR1/hKir6.2 (Homo sapiens, UniProt Q09428+Q14654)', 8.1),
  ('CNC(=O)NS(=O)(=O)c1cc(CCNC(=O)/C=C/c2cccs2)ccc1OC', 'hSUR1/hKir6.2 (Homo sapiens, UniProt Q09428+Q14654)', 1.7),
  ('CNC(=S)NS(=O)(=O)c1cc(CCNC(=O)/C=C/c2cccs2)ccc1OC', 'hSUR1/hKir6.2 (Homo sapiens, UniProt Q09428+Q14654)', 30.7);

Task: Which value of Blockade hSUR1/hKiR6.2 has been reported for "COCCOc1ccc(CCNC(=O)/C=C/c2ccccn2)cc1S(=O)(=O)NC(=S)NC(C)C" in the records?
Output: 5.9

----------
Test system: papillary muscle of the guinea pig
assay: Action potential duration on the papillary muscle of the guinea pig (relengthening of hypoxia-shortened APD90)
Assay type: cell-based
condition.label: concentration 2 μM, 60 min after addition, percentage in relation to the shortening caused by hypoxia
Protocol: Action Potential Duration on the Papillary Muscle of the Guinea Pig ATP deficiency states, observed during ischemia in the cardiac muscle cell, lead to a shortening of the action potential duration (ATP=adenosine triphosphate). […] Guinea pigs of both sexes were killed by a blow to the head, the hearts were removed, and the papillary muscles were separated out and suspended in an organ bath. […] The duration of the action potential was determined at a degree of repolarization of 90% (APD90). […]
reported.metric: Relengthening of the APD90 shortened by hypoxia (%)
Numbers only, in %.

Answered cases to consult:
INSERT INTO results (given_smiles, assay_system, value_reported) VALUES
  ('COCCOc1ccc(CCNC(=O)/C=C/c2ccccn2)cc1S(=O)(=O)NC(=S)NC(C)C', 'papillary muscle of the guinea pig', 26),
  ('CNC(=O)NS(=O)(=O)c1cc(CCNC(=O)/C=C/c2cccs2)ccc1OCCOC', 'papillary muscle of the guinea pig', 39),
  ('CCOCCOc1ccc(CCNC(=O)/C=C/c2cccs2)cc1S(=O)(=O)NC(=S)NC', 'papillary muscle of the guinea pig', 50);

--- query ---
Task: Which value of Relengthening of the APD90 shortened by hypoxia has been reported for "CNC(=S)NS(=O)(=O)c1cc(CCNC(=O)/C=C/c2cccs2)ccc1OC" in the records?
Output: 33
